system_name: Protein kinase C delta type (Homo sapiens)
Sequence (Q05655 whole entry, the tested form may be a part): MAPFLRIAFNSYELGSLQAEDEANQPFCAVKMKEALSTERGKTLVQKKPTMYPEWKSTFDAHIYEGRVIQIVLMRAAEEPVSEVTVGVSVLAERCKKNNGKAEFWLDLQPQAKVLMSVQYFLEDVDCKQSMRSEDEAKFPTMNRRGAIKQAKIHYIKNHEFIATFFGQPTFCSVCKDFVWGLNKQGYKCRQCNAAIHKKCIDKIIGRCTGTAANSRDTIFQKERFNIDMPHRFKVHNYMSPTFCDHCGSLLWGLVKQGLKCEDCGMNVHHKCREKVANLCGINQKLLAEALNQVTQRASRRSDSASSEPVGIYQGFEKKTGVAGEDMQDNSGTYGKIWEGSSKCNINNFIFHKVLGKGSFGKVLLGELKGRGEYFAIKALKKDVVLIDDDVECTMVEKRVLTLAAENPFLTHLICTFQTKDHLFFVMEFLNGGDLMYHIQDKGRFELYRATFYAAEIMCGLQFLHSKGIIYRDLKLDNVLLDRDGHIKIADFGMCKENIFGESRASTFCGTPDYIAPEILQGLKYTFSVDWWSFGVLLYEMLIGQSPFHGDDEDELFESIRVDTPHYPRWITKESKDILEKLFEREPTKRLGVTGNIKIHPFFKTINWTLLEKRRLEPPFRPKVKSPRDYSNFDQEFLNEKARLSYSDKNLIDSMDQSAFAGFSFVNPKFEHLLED
protocol_summary: Inhibition of [3H]-PDBu binding to C1b domain of protein kinase C delta without phosphatidylserine
attribute_measured: Ki
Answer format: number, then unit.

Known Ki results, listed for orientation:
- molecule: "CC(C)CC(C/C=C1\\CC(CO)(COCC(C)(C)C)OC1=O)CC(C)C (stereo not given)"
  system_name: "Protein kinase C delta type (Homo sapiens)"
  recorded_value: "101000 nM"
- molecule: "CC(C)CC(C/C=C1\\CC(CO)(COC(=O)C(C)(C)C)OC1=S)CC(C)C (stereo not given)"
  system_name: "Protein kinase C delta type (Homo sapiens)"
  recorded_value: "173 nM"
- molecule: "CC(C)CC(C/C=C1/COC(CO)(COC(=O)C(C)(C)C)C1)CC(C)C (stereo not given)"
  system_name: "Protein kinase C delta type (Homo sapiens)"
  recorded_value: "6620 nM"
- molecule: "CC(C)CC(C/C=C1\\CC(CO)(COC(=S)C(C)(C)C)OC1=O)CC(C)C (stereo not given)"
  system_name: "Protein kinase C delta type (Homo sapiens)"
  recorded_value: "606 nM"

// returns reported Ki for input CC(C)CC(C/C=C1\CC(CO)(COC(=O)C(C)(C)C)OC1=O)CC(C)C (stereo not given)
103 nM
